Values were extracted from PubChem BioAssay.

# TARGET OR TEST SYSTEM: Follistatin-related protein 3 (Homo sapiens) (UniProt O95633)
# Sequence (O95633 whole entry, looked up): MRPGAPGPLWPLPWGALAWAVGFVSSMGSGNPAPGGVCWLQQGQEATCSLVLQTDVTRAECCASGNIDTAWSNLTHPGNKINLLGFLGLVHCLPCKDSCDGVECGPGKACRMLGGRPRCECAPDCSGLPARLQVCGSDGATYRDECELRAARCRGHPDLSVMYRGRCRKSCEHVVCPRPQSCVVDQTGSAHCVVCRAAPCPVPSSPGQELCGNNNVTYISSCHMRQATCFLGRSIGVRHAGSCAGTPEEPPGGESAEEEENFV
# PROTOCOL: compounds binding follistatin-related protein 3 – biochemical, small-molecule microarray, 635 nm fluorescence, primary screen (AID 1105);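 further: score merges emission near 667 nm and signal to noise per printed spot across three slides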
# TEST PARAMETERS: FSTL3 binding, higher = more signal
Mark T for reported composite z-score of -0.2 or greater; mark F for anything smaller.

Hi, just wondering whether `C=C(COC)C(=O)CC[C@@H](OC(C)=O)c1ccccc1OCCO` shows composite z-score of -0.2 or higher.
T

Hi, just wondering whether `CC(C)N1C(=O)C[C@@](C(=O)NCCN2CCOCC2)(c2ccc([N+](=O)[O-])cc2)[C@H]1c1ccc(CO)cc1` shows composite z-score of -0.2 or higher.
F

Hi, just wondering whether `COc1ccc([Si](C)(C)[C@@H]2[C@@H](CC(=O)N(CCO)Cc3ccccc3)O[C@]3(C(=O)N(Cc4ccc(N5C(=O)c6cccc7cccc5c67)cc4)c4ccccc43)[C@H]2C)cc1` shows composite z-score of -0.2 or higher.
T

Hi, just wondering whether `COCC(=C=CC[C@H](O)c1ccccc1OCCO)C[C@H](O)COCc1ccccc1` shows composite z-score of -0.2 or higher.
T

Hi, just wondering whether `O=C(NC1CC1)[C@@H]1c2ccccc2C(=O)N(Cc2cc(C(F)(F)F)cc(C(F)(F)F)c2)[C@H]1c1ccc(CO)cc1` shows composite z-score of -0.2 or higher.
T

Hi, just wondering whether C[C@@H]1NC(=O)C([C@@H](C)OCc2ccccc2)NC(=O)[C@@]23C(=O)N[C@@H](Cc4ccccc4)C2[C@H](C)[C@@]2(C)O[C@H]2C3/C=C/C/C=C\CNC1=O (some centres undefined) shows composite z-score of -0.2 or higher.
T

Hi, just wondering whether CC1CC/C=C\[C@H]2OC34C=CCN(CCN5CCOCC5)C(=O)[C@H]3N(CCCO)C(=O)[C@@H]4C2C(=O)O1 (some centres undefined) shows composite z-score of -0.2 or higher.
F

Hi, just wondering whether `C=C(CCCC)/C(=C/C[C@H](OC(=O)c1ccncc1)c1ccc(OCCO)cc1)c1cnc2ccccc2c1` shows composite z-score of -0.2 or higher.
T

Hi, just wondering whether `COc1cc(CO)cc(I)c1O[C@H]1C=C(C(=O)NCCO)C[C@@H](NC2CCCCCC2)[C@@H]1O` shows composite z-score of -0.2 or higher.
T

Hi, just wondering whether `COc1ccc([Si](C)(C)[C@H]2[C@H](CCO)O[C@@]3(C(=O)N(Cc4cccc(N5C(=O)c6ccccc6Oc6ccccc65)c4)c4ccccc43)[C@@H]2C)cc1` shows composite z-score of -0.2 or higher.
F

Hi, just wondering whether `COc1ccc([Si](C)(C)[C@H]2[C@H](CC(=O)N3Cc4ccccc4C[C@H]3CO)O[C@@]3(C(=O)N(c4ccccc4)c4ccccc43)[C@@H]2C)cc1` shows composite z-score of -0.2 or higher.
T

Hi, just wondering whether `O=C1C[C@@](C(=O)NC2CC2)(c2ccc([N+](=O)[O-])cc2)[C@@H](c2ccc(CO)cc2)N1C1CCCCC1` shows composite z-score of -0.2 or higher.
T

Hi, just wondering whether CC(C)(C)N1CC=CC23O[C@@H]4C=CCCOC(=O)C4[C@H]2C(=O)N(CCCCCCO)[C@@H]3C1=O (some centres undefined) shows composite z-score of -0.2 or higher.
F

Hi, just wondering whether C=CCC(OC(C)=O)[C@@H]1[C@@H](N(Cc2ccc(-c3cccc(C(F)(F)F)c3)o2)C(=O)c2ccc(-c3ccccc3)cc2)c2cc(OCCCO)ccc2N1C(=O)c1ccc2ccccc2c1 (some centres undefined) shows composite z-score of -0.2 or higher.
T

Hi, just wondering whether C=CCC(OC(C)=O)[C@@H]1[C@@H](N(Cc2cc3ccccc3o2)C(=O)c2cccc3ccccc23)c2cc(OCCCO)ccc2N1C(=O)c1ccc2ccccc2n1 (some centres undefined) shows composite z-score of -0.2 or higher.
T

Hi, just wondering whether CCCCN1CC=CC23O[C@@H]4/C=C\CCCOC(=O)C4[C@H]2C(=O)N(C(CO)C(C)C)[C@@H]3C1=O (some centres undefined) shows composite z-score of -0.2 or higher.
F

Hi, just wondering whether `CC(C)N1C(=O)c2ccccc2[C@@H](C(=O)NCC(F)(F)F)[C@@H]1c1ccc(CO)cc1` shows composite z-score of -0.2 or higher.
F

Hi, just wondering whether COC(=O)C1(Cc2ccccc2)C=C2C(=C(C)C(=O)C2C)CN1 (centres undefined) shows composite z-score of -0.2 or higher.
T

Hi, just wondering whether `Cc1ccc(S[C@]2(C(=O)NCCCN(C)C)CC(=O)N(Cc3ccccc3C(F)(F)F)[C@@H]2c2ccc(CO)cc2I)cc1` shows composite z-score of -0.2 or higher.
F

Hi, just wondering whether `C=C(COC)C(=O)CC[C@@H](OC(=O)c1ccccc1-c1ccccc1C(=O)O)c1ccc(OCCO)cc1` shows composite z-score of -0.2 or higher.
T

Hi, just wondering whether `COCCOC(=O)N1C(=O)[C@@]2(c3ccccc31)[C@H](c1ccc(O)cc1)N1[C@H](c3ccccc3)[C@H](c3ccccc3)OC(=O)[C@H]1[C@@H]2C(=O)N1CCCCCCC1` shows composite z-score of -0.2 or higher.
T

Hi, just wondering whether `CC[C@@H]1C=C(C(=O)O)[C@H](c2ccc(OC)cc2)N1S(=O)(=O)c1ccc(C)cc1` shows composite z-score of -0.2 or higher.
T

Hi, just wondering whether `CN(C)CCCC[C@@H]1NC(=O)[C@@H]2C[C@H](C(=O)NCCCCCN)[C@H](c3cccc(OCCO)c3)N2C1=O` shows composite z-score of -0.2 or higher.
T

Hi, just wondering whether `CC(C)C[C@@H]1NC(=O)[C@@H]2C[C@H](C(=O)NCCCCCCNC(=O)CS)[C@H](c3cccc(OCCO)c3)N2C1=O` shows composite z-score of -0.2 or higher.
T

Hi, just wondering whether `CCOC(=O)C[C@H]1[C@H](OC(=O)Cc2ccc3c(c2)OCO3)[C@@H](NC(=O)Cc2ccc(OC)cc2)c2cc(OCCCO)ccc2N1C(=O)Cc1ccc(OC)cc1` shows composite z-score of -0.2 or higher.
T

Hi, just wondering whether [N-]=[N+]=Nc1ccccc1[C@@H]1OC(c2ccc(OCCCO)cc2)=N[C@]1(CCS(=O)(=O)c1ccccc1)C(=O)NCC(O)CO (some centres undefined) shows composite z-score of -0.2 or higher.
F

Hi, just wondering whether `CN(C)CCCNC(=O)[C@@H]1c2ccccc2C(=O)N(Cc2ccccc2C(F)(F)F)[C@H]1c1ccc(CO)cc1` shows composite z-score of -0.2 or higher.
F

Hi, just wondering whether `CCCC#C[Si](O[C@H](CC)c1cn(Cc2ccccc2)nn1)(C(C)C)C(C)C` shows composite z-score of -0.2 or higher.
T
